# measurement_description: Henry solubility constant Hcp at 293 K (mol/(m3 Pa))
# measurement_context: reference: Hovorka and Dohnal (1997)

compound: Brc1ccccc1
Henry solubility constant Hcp at 293 K: 0.0061
--
compound: Clc1cccc(Cl)c1
Henry solubility constant Hcp at 293 K: 0.0047
--
compound: ClC(Cl)C(Cl)Cl
Henry solubility constant Hcp at 293 K: 0.03
--
compound: Clc1ccc(Cl)cc1
Henry solubility constant Hcp at 293 K: 0.0054
--
compound: ClC=C(Cl)Cl
Henry solubility constant Hcp at 293 K: 0.0013
--
compound: CC(Cl)(Cl)Cl
Henry solubility constant Hcp at 293 K: 0.00079
--
compound: CC(Cl)CCl (configuration not stated)
Henry solubility constant Hcp at 293 K: 0.0046

###

# measurement_description: Henry solubility constant Hcp at 293 K (mol/(m3 Pa))
# measurement_context: reference: Hovorka and Dohnal (1997)
Listed next: entries and their corresponding Henry solubility constant Hcp at 293 K.
readout_kind: Henry solubility constant Hcp at 293 K

query_smiles: Clc1ccccc1
readout_kind: Henry solubility constant Hcp at 293 K
observed_measurement: 0.0035
--
query_smiles: ClCC(Cl)Cl
readout_kind: Henry solubility constant Hcp at 293 K
observed_measurement: 0.015
--
query_smiles: ClCCl
readout_kind: Henry solubility constant Hcp at 293 K
observed_measurement: 0.0051
--
query_smiles: BrCBr
readout_kind: Henry solubility constant Hcp at 293 K
observed_measurement: 0.015
--
query_smiles: ClCc1ccccc1
readout_kind: Henry solubility constant Hcp at 293 K
observed_measurement: 0.028
--
query_smiles: ClC(Cl)=C(Cl)Cl
readout_kind: Henry solubility constant Hcp at 293 K
observed_measurement: 0.00084
--
query_smiles: BrC(Br)Br
readout_kind: Henry solubility constant Hcp at 293 K
observed_measurement: 0.023
